Numbers sourced from ChEMBL document CHEMBL3739268.

# System Under Test: Cytochrome P450 2D6 (Homo sapiens, UniProt P10635)
# Sequence (P10635 whole entry): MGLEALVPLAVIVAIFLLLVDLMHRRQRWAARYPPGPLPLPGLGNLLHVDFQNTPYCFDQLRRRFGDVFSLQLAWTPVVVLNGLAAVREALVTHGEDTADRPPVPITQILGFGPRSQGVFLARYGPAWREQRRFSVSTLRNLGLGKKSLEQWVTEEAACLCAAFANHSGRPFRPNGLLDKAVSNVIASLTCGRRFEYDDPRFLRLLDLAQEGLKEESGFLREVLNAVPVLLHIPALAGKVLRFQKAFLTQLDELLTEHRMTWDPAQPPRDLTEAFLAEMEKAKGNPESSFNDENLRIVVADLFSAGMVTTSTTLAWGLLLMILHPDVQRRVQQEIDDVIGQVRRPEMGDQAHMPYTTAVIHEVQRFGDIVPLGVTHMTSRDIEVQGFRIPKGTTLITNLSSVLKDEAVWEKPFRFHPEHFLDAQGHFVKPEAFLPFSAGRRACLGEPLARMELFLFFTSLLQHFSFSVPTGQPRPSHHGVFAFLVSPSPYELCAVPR
Measured Metric: IC50

Value wanted: IC50 (Cytochrome P450 2D6 (Homo sapiens, UniProt P10635)) of entry CC(C)Cc1cc(O)c(-c2ccccc2)c(=O)[nH]1 > 20 µM

* * *

# Test Protocol: Cmax in mouse at 50 mg/kg, po
# Type: ADME, organism-based
# Parameters: dose 50 mg/kg, route oral
# Details: in vivo
Measured Metric: Cmax
Remember to put the unit after the number in your answer.

Bench note: what Cmax did CC(C)Cc1cc(O)c(-c2ccccc2)c(=O)[nH]1 show? 13.2 µM

* * *

# Test Protocol: Cytotoxicity against human HepG2 cells
# Format: cell-based
Items are presented alongside their recorded CC50.

{"columns": ["Compound Smiles", "Measured Metric", "Result"],
 "data": [
  ["CC1(C)CCC(Cc2cc(O)c(-c3ccccc3)c(=O)[nH]2)CC1", "CC50", "> 20 µM"]
]}

Which measured CC50 value corresponds to CC(C)Cc1cc(O)c(-c2ccccc2)c(=O)[nH]1 ? > 20 µM
